- experimental-protocol: Rat pharmacokinetics of daunorubicin micelles compared to free daunorubicin (Example 54)
- Format: in vivo, Fisher rats
- condition-details: Fisher, rat, plasma, intravenous, 10 mg/kg; repeat experiment, same rats seven days after the first injection
observation-type: AUC
Answer with the number, then the unit.

Please look up its AUC: COc1cccc2c1C(=O)c1c(O)c3c(c(O)c1C2=O)C[C@@](O)(C(C)=O)C[C@@H]3O[C@H]1C[C@H](N)[C@H](O)[C@H](C)O1
3540 ng·h/mL

---

- experimental-protocol: Rat pharmacokinetics of daunorubicin micelles compared to free daunorubicin (Example 54)
- Type: in vivo, Fisher rats
- condition-details: Fisher, rat, plasma, intravenous, 10 mg/kg; repeat experiment, same rats seven days after the first injection; read-out: Cmax
observation-type: Cmax (ng/mL)
Write the answer as a number in ng/mL, unit excluded.

Please look up its Cmax: COc1cccc2c1C(=O)c1c(O)c3c(c(O)c1C2=O)C[C@@](O)(C(C)=O)C[C@@H]3O[C@H]1C[C@H](N)[C@H](O)[C@H](C)O1 [Daunorubicin, daunorubicin]
10600

---

- Tested on: 786-0 cells
- experimental-protocol: Cytotoxicity of daunorubicin micelles compared to free daunorubicin, 72 hours, Cell-Titer Glo
- Format: cell-based
- condition-details: Homo sapiens, 786-0, 72 h
observation-type: IC50 (nM)
Write the answer as a number in nM, unit excluded.

Provide the documented IC50 with 786-0 cells as the system for COc1cccc2c1C(=O)c1c(O)c3c(c(O)c1C2=O)C[C@@](O)(C(C)=O)C[C@@H]3O[C@H]1C[C@H](N)[C@H](O)[C@H](C)O1 [Daunorubicin, daunorubicin]
231

---

- Test system: MG-63 cells
- experimental-protocol: Cytotoxicity of daunorubicin micelles compared to free daunorubicin, 72 hours, Cell-Titer Glo
- Format: cell-based
- condition-details: Homo sapiens, MG-63, 72 h
observation-type: IC50 (µM)
Write the answer as a number in µM, unit excluded.

Please look up its IC50: COc1cccc2c1C(=O)c1c(O)c3c(c(O)c1C2=O)C[C@@](O)(C(C)=O)C[C@@H]3O[C@H]1C[C@H](N)[C@H](O)[C@H](C)O1
0.231
